Entry source: PubChem BioAssay AID1195

Please go through the items and note down their maximum recommended daily dose (mmol/kg-bw/day).
System: human maximum recommended daily dose, FDA database
Assay Remarks: DSSTox (FDAMDD) FDA Maximum (Recommended) Daily Dose Database
Condition Context: TherapeuticCategory: antidepressant; active compounds read low
Description: The Food and Drug Administration (FDA) Center for Drug Evaluation and Research, Office of Pharmaceutical Science, Informatics and Computational Safety Analysis Staff's Maximum Recommended Daily Dose (FDAMDD) database contains values for over 1200 pharmaceuticals listed in Martindale: The Extra Pharmacopoeia (1973, 1983, and 1993) and The Physicians' Desk Reference (1995 and 1999). […]
Give bare numbers.

| Compound | Measured Value |
| --- | --- |
| CNCCCN1c2ccccc2CCc2ccccc21 | 0.0188 |
| CNCCC(Oc1ccc(C(F)(F)F)cc1)c1ccccc1 (centres undefined) | 0.0043 |
| CN(C)CC/C=C1\c2ccccc2CSc2ccccc21 | 0.00846 |

Lookup result for `N[C@@H]1C[C@H]1c1ccccc1` ; measured maximum recommended daily dose (mmol/kg-bw/day): 0.00751

###

Provide the reported maximum recommended daily dose (mmol/kg-bw/day) of each item.
Test system: human maximum recommended daily dose, FDA database
Assay Remarks: DSSTox (FDAMDD) FDA Maximum (Recommended) Daily Dose Database
Condition Context: TherapeuticCategory: none; active compounds read low

Worked examples follow.
| Compound | Measured Value |
| --- | --- |
| O=C(O)[C@H](O)[C@@H](O)C(=O)O | 0.2 |
| CCCCc1ccc(C(=O)O)nc1 | 0.0418 |
| CCC(C)CON=O (stereo not given) | 0.0427 |
| NC(=O)CC[C@H](N)C(=O)O | 1.37 |

The compound identified as `N[C@@H](CS)C(=O)O` registered its maximum recommended daily dose (mmol/kg-bw/day) at 0.825

###

System: human maximum recommended daily dose, FDA database
Assay Remarks: DSSTox (FDAMDD) FDA Maximum (Recommended) Daily Dose Database
Condition Context: TherapeuticCategory: antineoplastic; active compounds read low
Property Label: maximum recommended daily dose (mmol/kg-bw/day)
Give bare numbers.

| Compound | Measured Value |
| --- | --- |
| OC[C@H]1O[C@@H](n2cnc3c2NC=NC[C@H]3O)C[C@@H]1O | 0.000249 |
| CC[C@]1(O)C[C@H]2CN(CCc3c([nH]c4ccccc34)[C@@](C(=O)OC)(c3cc4c(cc3OC)N(C)[C@H]3[C@@](O)(C(N)=O)[C@H](O)[C@]5(CC)C=CCN6CC[C@]43[C@@H]65)C2)C1 | 0.000143 |
| O=NN(CCCl)C(=O)NC1CCCCC1 | 0.015 |
| COc1c(C)c2c(c(O)c1C/C=C(\C)CCC(=O)OCCN1CCOCC1)C(=O)OC2 | 0.277 |
| O=NN(CCCl)C(=O)NCCCl | 0.000389 |

Hi! Can you tell me maximum recommended daily dose (mmol/kg-bw/day) for each of these compounds?
1. O[C@H]([C@H](O)[C@@H](O)CBr)[C@H](O)CBr
2. CN(C)c1nc(N(C)C)nc(N(C)C)n1
3. C[C@@H]1C[C@@]2(C)[C@@H](CC[C@@H]3[C@@H]2CC[C@]2(C)[C@@H](O)CC[C@@H]32)CC1=O
4. O[C@@H]([C@H](O)[C@@H](O)CBr)[C@@H](O)CBr
5. CC(CN1CC(=O)NC(=O)C1)N1CC(=O)NC(=O)C1 (configuration not stated)
6. Nc1nc(=S)c2[nH]cnc2[nH]1

Ans:
1. 0.0158
2. 0.0257
3. 0.00549
4. 0.0135
5. 0.0155
6. 0.0324

Fill in maximum recommended daily dose (mmol/kg-bw/day) for each of the 5 compounds listed.
1. CO[C@@]12[C@H](COC(N)=O)C3=C(C(=O)C(C)=C(N)C3=O)N1C[C@@H]1N[C@@H]12
2. COc1cccc2c1C(=O)c1c(O)c3c(c(O)c1C2=O)C[C@@](O)(C(=O)CO)C[C@@H]3O[C@H]1C[C@H](N)[C@@H](O)[C@H](C)O1
3. O=C(O)CCCc1ccc(N(CCCl)CCCl)cc1
4. Nc1ncn([C@@H]2O[C@H](CO)[C@@H](O)[C@H]2O)c(=O)n1
5. COc1cc(NS(C)(=O)=O)ccc1Nc1c2ccccc2nc2ccccc12

Ans:
1. 0.00162
2. 0.00447
3. 0.000657
4. 0.0831
5. 0.00823

Could I get maximum recommended daily dose (mmol/kg-bw/day) for every one of these entries?
1. COc1cccc2c1C(=O)c1c(O)c3c(c(O)c1C2=O)C[C@@](O)(C(=O)CO)C[C@@H]3O[C@H]1C[C@H](N)[C@H](O)[C@H](C)O1
2. COc1cccc2c1C(=O)c1c(O)c3c(c(O)c1C2=O)C[C@@](O)(/C(C)=N/NC(=O)c1ccccc1)C[C@@H]3O[C@H]1C[C@H](N)[C@H](O)[C@H](C)O1

Ans:
1: 0.00447; 2: 0.0103

Give me maximum recommended daily dose (mmol/kg-bw/day) for each of these compounds, listed below.
1. C=C1C[C@@H]2[C@H](CC[C@]3(C)C(=O)CC[C@@H]23)[C@@]2(C)C=CC(=O)C=C12
2. CN(N=O)C(=O)N[C@@H]1[C@@H](O)[C@H](O)[C@@H](CO)O[C@@H]1O
3. C[C@]12C=CC(=O)C=C1CC[C@@H]1[C@@H]2[C@@H](O)C[C@@]2(C)[C@H]1CC[C@]2(O)C(=O)COC(=O)CCCc1ccc(N(CCCl)CCCl)cc1
4. Nc1nc(Cl)nc2c1ncn2[C@H]1C[C@H](O)[C@@H](CO)O1

Ans:
0.00135
0.407
0.00515
0.000315

###

Would you mind telling me the reported maximum recommended daily dose (mmol/kg-bw/day) of each entry?
Test system: human maximum recommended daily dose, FDA database
Assay Remarks: DSSTox (FDAMDD) FDA Maximum (Recommended) Daily Dose Database
Condition Context: TherapeuticCategory: antibacterial; active compounds read low
Answers are plain numbers.

| Chemical Smiles | System | Measured Value |
| --- | --- | --- |
| CS(=O)(=O)c1ccc([C@@H](O)[C@@H](CO)NC(=O)C(Cl)Cl)cc1 | human maximum recommended daily dose, FDA database | 0.14 |
| CO/N=C(\C(=O)N[C@@H]1C(=O)N2C(C(=O)O)=C(CSc3nc(C)c(CC(=O)O)s3)CS[C@H]12)c1csc(N)n1 | human maximum recommended daily dose, FDA database | 0.057 |
| CCN1CCN(C(=O)N[C@@H](C(=O)N[C@@H]2C(=O)N3[C@@H]2SC(C)(C)[C@@H]3C(=O)O)c2ccccc2)C(=O)C1=O | human maximum recommended daily dose, FDA database | 0.773 |

Dear reader, for each entry below, please note its maximum recommended daily dose (mmol/kg-bw/day).
1. CC1(C)S[C@@H]2[C@H](NC(=O)[C@@H](NC(=O)N3CCNC3=O)c3ccccc3)C(=O)N2[C@H]1C(=O)O
2. NCc1ccccc1CC(=O)N[C@@H]1C(=O)N2C(C(=O)O)=C(CSc3nnnn3CC(=O)O)CS[C@H]12
3. Cc1nc(NS(=O)(=O)c2ccc(N)cc2)oc1C
4. COc1cc(NS(=O)(=O)c2ccc(N)cc2)nc(C)n1

Ans:
[0.217, 0.0641, 0.125, 0.113]

###

System: human maximum recommended daily dose, FDA database
Assay Remarks: DSSTox (FDAMDD) FDA Maximum (Recommended) Daily Dose Database
Condition Context: TherapeuticCategory: antihypertensive; active compounds read low
The label True is reserved for maximum recommended daily dose (mmol/kg-bw/day) strictly under 0.001; False covers values equal to or above it.

A selection of reference data follows.
| Compound | Category |
| --- | --- |
| NNc1nncc2ccccc12 | False |
| CCCC(=O)N1CCCN(c2nc(N)c3cc(OC)c(OC)cc3n2)CC1 | True |
| CCOC(=O)C1=C(C)NC(C)=C(C(=O)OC)C1c1cccc([N+](=O)[O-])c1 (stereo not drawn) | True |
| NNc1nnc(NN)c2ccccc12 | False |
| CC1=NS(=O)(=O)c2cc(Cl)ccc2N1 | False |
| CC(COc1ccccc1)N(CCCl)Cc1ccccc1 (stereo not drawn) | False |
| C#CCN(C)Cc1ccccc1 | False |
| CCOC(=O)[C@H](CCc1ccccc1)N[C@@H](C)C(=O)N1[C@H](C(=O)O)C[C@@H]2CCC[C@@H]21 | True |

Q: Does the reported maximum recommended daily dose (mmol/kg-bw/day) of `C[C@](N)(Cc1ccc(O)c(O)c1)C(=O)O` stay below 0.001?
Ans: False

Q: Is maximum recommended daily dose (mmol/kg-bw/day) of `CCCCc1ncc(/C=C(\Cc2cccs2)C(=O)O)n1Cc1ccc(C(=O)O)cc1` strictly below 0.001?
Ans: False

Q: Here's an entry: `CCOC(=O)[C@H](CCc1ccccc1)N[C@@H](C)C(=O)N1[C@H](C(=O)O)C[C@H]2CCCC[C@@H]21` . Is its maximum recommended daily dose (mmol/kg-bw/day) below 0.001?
Ans: False

Q: # check: maximum recommended daily dose (mmol/kg-bw/day) < 0.001 for `CCCCC(=O)N(Cc1ccc(-c2ccccc2-c2nn[nH]n2)cc1)[C@@H](C(=O)O)C(C)C`
Ans: False
